These measurements were taken from patent US11958865B1.

Provide the recorded pIC50 for the entries that follow.
- measured_on: LRRK2 G2019S (Homo sapiens (Human), UniProt Q5S007, G2019S)
- Sequence (Q5S007 970-2527 G2019S): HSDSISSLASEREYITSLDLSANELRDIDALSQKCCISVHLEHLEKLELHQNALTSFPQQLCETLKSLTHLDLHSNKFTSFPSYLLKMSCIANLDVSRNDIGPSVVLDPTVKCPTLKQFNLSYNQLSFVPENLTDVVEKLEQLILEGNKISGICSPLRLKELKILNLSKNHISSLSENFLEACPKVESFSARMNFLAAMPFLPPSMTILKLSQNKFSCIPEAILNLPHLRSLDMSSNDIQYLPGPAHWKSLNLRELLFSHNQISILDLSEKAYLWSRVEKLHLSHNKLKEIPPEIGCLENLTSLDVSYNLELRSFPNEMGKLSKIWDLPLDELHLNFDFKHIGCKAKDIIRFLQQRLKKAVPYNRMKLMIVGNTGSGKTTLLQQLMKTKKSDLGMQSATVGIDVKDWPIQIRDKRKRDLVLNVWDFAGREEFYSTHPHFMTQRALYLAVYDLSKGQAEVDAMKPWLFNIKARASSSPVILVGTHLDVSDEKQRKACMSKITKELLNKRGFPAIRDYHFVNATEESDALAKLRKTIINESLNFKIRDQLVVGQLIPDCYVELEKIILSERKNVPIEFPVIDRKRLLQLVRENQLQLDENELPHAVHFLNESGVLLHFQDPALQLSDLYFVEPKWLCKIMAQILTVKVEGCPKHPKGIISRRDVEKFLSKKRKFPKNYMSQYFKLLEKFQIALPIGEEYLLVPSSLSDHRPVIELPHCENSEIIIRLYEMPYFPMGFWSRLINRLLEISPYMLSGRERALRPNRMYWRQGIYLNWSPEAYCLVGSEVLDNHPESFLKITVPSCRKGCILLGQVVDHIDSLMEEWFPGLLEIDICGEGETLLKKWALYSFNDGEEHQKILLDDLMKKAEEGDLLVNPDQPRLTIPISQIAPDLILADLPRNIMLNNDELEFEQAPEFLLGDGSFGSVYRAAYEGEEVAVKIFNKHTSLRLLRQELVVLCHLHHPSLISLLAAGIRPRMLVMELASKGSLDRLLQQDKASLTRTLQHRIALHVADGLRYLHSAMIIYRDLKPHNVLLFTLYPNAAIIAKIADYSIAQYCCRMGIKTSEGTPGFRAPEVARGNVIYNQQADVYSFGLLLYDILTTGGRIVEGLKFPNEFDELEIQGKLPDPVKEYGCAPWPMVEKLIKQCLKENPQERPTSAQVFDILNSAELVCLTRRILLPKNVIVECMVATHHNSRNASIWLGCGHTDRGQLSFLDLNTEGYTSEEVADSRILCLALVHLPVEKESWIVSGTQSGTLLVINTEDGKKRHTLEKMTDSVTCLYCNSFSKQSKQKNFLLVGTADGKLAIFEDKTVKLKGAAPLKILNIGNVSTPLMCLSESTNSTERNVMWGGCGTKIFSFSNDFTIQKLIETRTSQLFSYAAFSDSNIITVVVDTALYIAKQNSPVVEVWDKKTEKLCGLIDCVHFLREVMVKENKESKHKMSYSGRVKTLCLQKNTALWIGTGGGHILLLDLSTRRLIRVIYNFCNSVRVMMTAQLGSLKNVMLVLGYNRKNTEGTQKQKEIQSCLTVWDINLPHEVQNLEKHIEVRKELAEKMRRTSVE
- protocol_summary: LRRK2 G2019S LanthaScreen TR-FRET kinase activity assay
- experimental_conditions: 250 pM kinase, 1.3 mM ATP, n≥2 tests
Give bare numbers, as −log10 of the molar value.

CCc1ncccc1-n1nc2c(c1C)Nc1ncc3c(Cl)nn(c3n1)CCCO2: 8.74
[2H]C([2H])([2H])Oc1ncccc1-n1nc2c(c1C)Nc1ncc3c(Cl)nn(c3n1)CCCO2: 9.46

Shifting focus to the compound that follows.
The compound COc1ncccc1-n1nc2c(c1C)Nc1ncc3c(Cl)nn(c3n1)CCCO2 , when measured on LRRK2 G2019S (Homo sapiens (Human), UniProt Q5S007, G2019S), yielded pIC50 of 9.35

* * *

Provide the recorded IC50 for the entries that follow.
- measured_on: LRRK2 G2019S (Homo sapiens (Human), UniProt Q5S007, G2019S)
- protocol_summary: LRRK2 G2019S LanthaScreen TR-FRET kinase activity assay
- experimental_conditions: 250 pM kinase, 1.3 mM ATP, n≥2 tests
One number for each entry, in nM.

Cc1c2c(nn1-c1cccnc1C(F)(F)F)OCCCn1nc(Cl)c3cnc(nc31)N2: 5.5
COc1nc(C)ncc1-n1nc2c(c1C)Nc1ncc3c(Cl)nn(c3n1)CCCO2: 0.59
[2H]C([2H])([2H])c1c2c(nn1-c1cccnc1OC)OCCCn1nc(Cl)c3cnc(nc31)N2: 0.23

Kindly give each listed record's IC50.
1. COc1nc(C)ccc1-n1nc2c(c1C)Nc1ncc3c(Cl)nn(c3n1)CCCO2
2. Cc1c2c(nn1-c1cccnc1C(C)(F)F)OCCCn1nc(Cl)c3cnc(nc31)N2
3. Cc1c2c(nn1-c1cccnc1OC1CC1)OCCCn1nc(Cl)c3cnc(nc31)N2
4. CCc1c2c(nn1-c1cccnc1OC)OCCCn1nc(Cl)c3cnc(nc31)N2
5. CCOc1ncccc1-n1nc2c(c1C)Nc1ncc3c(Cl)nn(c3n1)CCCO2

[out]
0.22
4.2
0.93
1.4
0.35

* * *

- protocol_summary: Rat brain disposition after oral gavage
- Assay type: in vivo, male Sprague-Dawley rats
- experimental_conditions: male, Sprague-Dawley, brain, oral 10 mg/kg, 1 h, mean ± stdev, n=3, read-out: Total brain concentration
measurement_label: concentration at 1 h (ng/g)
Numbers only, in ng/g.

concentration at 1 h reported for this molecule COc1ncccc1-n1nc2c(c1C)Nc1ncc3c(Cl)nn(c3n1)CCCO2 : 620

* * *

- protocol_summary: Hepatic microsomal intrinsic clearance assay
- Assay type: in vitro ADME
- experimental_conditions: pooled liver microsomes, pH 7.4; liver microsomes 0.5 mg/mL; 1 μM; NADPH; 1 hour at 37° C.; LLOQ 0.36 L/h/kg
Exercise: state measured CLint scaled at 1 μM for each of the molecules provided.
Numbers only, in mL/min/kg.

Cc1c2c(nn1-c1cccnc1C(F)(F)F)OCCCn1nc(Cl)c3cnc(nc31)N2: 15.3

Take each entry in turn and give its CLint scaled at 1 μM.
1. CCc1c2c(nn1-c1cccnc1OC)OCCCn1nc(Cl)c3cnc(nc31)N2
2. COc1nc(C)ccc1-n1nc2c(c1C)Nc1ncc3c(Cl)nn(c3n1)CCCO2
3. COc1nccc(C)c1-n1nc2c(c1C)Nc1ncc3c(Cl)nn(c3n1)CCCO2
4. Cc1c2c(nn1-c1cccnc1OCF)OCCCn1nc(Cl)c3cnc(nc31)N2
5. Cc1c2c(nn1-c1cccnc1OC(F)(F)F)OCCCn1nc(Cl)c3cnc(nc31)N2

[out]
1. 23.2
2. 30.3
3. 16.2
4. 11.2
5. 18.3

Give me CLint scaled at 1 μM for each of these molecules, listed below.
1. [2H]C([2H])([2H])c1c2c(nn1-c1cc(F)cnc1C)OCCCn1nc(Cl)c3cnc(nc31)N2
2. CCc1c2c(nn1-c1cccnc1C)OCCCn1nc(Cl)c3cnc(nc31)N2

[out]
14
16.8
